Hello, the source for this data is patent US20240343747A1, in case you need it.

- procedure-details: Pharmacokinetic evaluation in beagle dog
- Type: in vivo
- conditions: plasma, iv; beagle dog, i.v. 1 mg/kg
reported-endpoint: half-life (h)
Give bare numbers, in h.

[2H]C([2H])([2H])NC(=O)c1nnc(NC(=O)C2CC2)cc1Nc1cccc(-c2cc(P(=O)(C3CC3)C3CC3)n(C)n2)c1OC [Compound B41]; 2.1

// switching to the query molecule
Incoming: Read off the recorded half-life for CCC(=O)c1cnc(NC(=O)C2CC2)cc1Nc1cccc(-c2cc(P(=O)(C3CC3)C3CC3)n(C)n2)c1OC [Compound B37]
Outgoing: 2.2

====

- procedure-details: Pharmacokinetic evaluation in beagle dog
- Assay type: in vivo
- conditions: plasma, po; beagle dog, p.o. 5 mg/kg
Please provide measured Tmax for the entries that follow.
Give bare numbers, in min.

// for each compound below, give its Tmax
1. CCC(=O)c1cnc(NC(=O)C2CC2)cc1Nc1cccc(-c2cc(P(=O)(C3CC3)C3CC3)n(C)n2)c1OC [Compound B37]
2. [2H]C([2H])([2H])NC(=O)c1nnc(NC(=O)C2CC2)cc1Nc1cccc(-c2cc(P(=O)(C3CC3)C3CC3)n(C)n2)c1OC [Compound B41]

Outgoing:
1: 49.8; 2: 60
